METHOD_DESCRIPTION: In vivo pharmacokinetics, rats
Parameters: species or system rat
TEST_CONTEXT: rat, plasma, po; text b979, (5 mg/kg); read-out: oral bioavailability in rats, exploratory PK studies
MEASURED_QUANTITY: bioavailability
# do not omit the unit; it follows the number

Name the reported bioavailability value associated with the molecule CO[P@](=O)(c1cc(C)cc(/C=C/C#N)c1)c1c(C(N)=O)[nH]c2ccc(Cl)cc12 [Compound III]
38%

====

METHOD_DESCRIPTION: Longer term cytotoxicity, HeLa, HuH7 and HepG2 (ranges)
TEST_CONTEXT: human, HuH7 and HepG2 cells (range over the three lines), HuH7 and HepG2, 9-12 day testing
MEASURED_QUANTITY: CC50

MOLECULE	CC50
O=C1Nc2ccc(Cl)cc2C(C#CC2CC2)(C(F)(F)F)O1 (centres unmarked) [EFV, reference compound]	48 to 81 µM

As a next step, examine the molecule that follows.
Name the reported CC50 value associated with the molecule "CO[P@](=O)(c1cc(C)cc(/C=C/C#N)c1)c1c(C(N)=O)[nH]c2ccc(Cl)cc12"
23.5 to 31.5 µM
